- testMethodNotes: Selectivity index, ratio of IC50 for african green monkey (Cercopithecus aethiops) Vero cells to IC50 for Plasmodium falciparum 3D7
- Assay type: toxicity, cell-based
- experimentalSetup: read-out: Ratio IC50
recordedEndpoint: selectivity ratio

[[record]]
chemicalsmiles = "O=C1C(=O)N(c2ccccc2Cl)C(=S)N1CCNc1ccnc2cc(Cl)ccc12"
resultnumber = 3.36

[[record]]
chemicalsmiles = "O=C1C(=O)N(c2ccccc2Cl)C(=S)N1CCCNc1ccnc2cc(Cl)ccc12"
resultnumber = 122

[[record]]
chemicalsmiles = "CCCC/N=C1\\SC(=O)C(=O)N1CCNc1ccnc2cc(Cl)ccc12"
resultnumber = 480

[[record]]
chemicalsmiles = "S=C(NCCNc1ccnc2cc(Cl)ccc12)Nc1ccccc1"
resultnumber = 997

[[record]]
chemicalsmiles = "O=C1C(=O)N(c2ccccc2)C(=S)N1CCCNc1ccnc2cc(Cl)ccc12"
resultnumber = 65.5

[[record]]
chemicalsmiles = "C=CCN1C(=O)C(=O)N(CCNc2ccnc3cc(Cl)ccc23)C1=S"
resultnumber = 141

[[record]]
chemicalsmiles = "CCCCN1C(=O)C(=O)N(CCNc2ccnc3cc(Cl)ccc23)C1=S"
resultnumber = 406

[[record]]
chemicalsmiles = "S=C(NCCCNc1ccnc2cc(Cl)ccc12)Nc1ccccc1Cl"
resultnumber = 1110

[[record]]
chemicalsmiles = "CCCCNC(=S)NCCNc1ccnc2cc(Cl)ccc12"
resultnumber = 750

[[record]]
chemicalsmiles = "C=CCN1C(=O)C(=O)N(CCCNc2ccnc3cc(Cl)ccc23)C1=S"
resultnumber = 80.4

[[record]]
chemicalsmiles = "O=C1S/C(=N\\c2ccccc2)N(CCCNc2ccnc3cc(Cl)ccc23)C1=O"
resultnumber = 637

[[record]]
chemicalsmiles = "S=C(NCCCNc1ccnc2cc(Cl)ccc12)Nc1ccccc1"
resultnumber = 968

[[record]]
chemicalsmiles = "C=CCNC(=S)NCCCNc1ccnc2cc(Cl)ccc12"
resultnumber = 582

[[record]]
chemicalsmiles = "CCCCN1C(=O)C(=O)N(CCCNc2ccnc3cc(Cl)ccc23)C1=S"
resultnumber = 27.2

[[record]]
chemicalsmiles = "CCCCNC(=S)NCCCNc1ccnc2cc(Cl)ccc12"
resultnumber = 600

[[record]]
chemicalsmiles = "O=C1S/C(=N\\c2ccccc2Cl)N(CCNc2ccnc3cc(Cl)ccc23)C1=O"
resultnumber = 543

[[record]]
chemicalsmiles = "C=CCNC(=S)NCCNc1ccnc2cc(Cl)ccc12"
resultnumber = 668

[[record]]
chemicalsmiles = "O=C1S/C(=N\\c2ccccc2Cl)N(CCCNc2ccnc3cc(Cl)ccc23)C1=O"
resultnumber = 434

[[record]]
chemicalsmiles = "S=C(NCCNc1ccnc2cc(Cl)ccc12)Nc1ccccc1Cl"
resultnumber = 332

[[record]]
chemicalsmiles = "C=CC/N=C1\\SC(=O)C(=O)N1CCCNc1ccnc2cc(Cl)ccc12"
resultnumber = 475

[[record]]
chemicalsmiles = "C=CC/N=C1\\SC(=O)C(=O)N1CCNc1ccnc2cc(Cl)ccc12"
resultnumber = 603

[[record]]
chemicalsmiles = "O=C1S/C(=N\\c2ccccc2)N(CCNc2ccnc3cc(Cl)ccc23)C1=O"
resultnumber = 605

[[record]]
chemicalsmiles = "O=C1C(=O)N(c2ccccc2)C(=S)N1CCNc1ccnc2cc(Cl)ccc12"
resultnumber = 118

[[record]]
chemicalsmiles = "CCCC/N=C1\\SC(=O)C(=O)N1CCCNc1ccnc2cc(Cl)ccc12"
resultnumber = 256

